# HDAC3 activity raw data (signal) values compiled below
Target: HDAC3 (Homo sapiens)
Construct: purchased Reaction Biology Corporation (assay run by the CRO)
Sequence (O15379 whole entry): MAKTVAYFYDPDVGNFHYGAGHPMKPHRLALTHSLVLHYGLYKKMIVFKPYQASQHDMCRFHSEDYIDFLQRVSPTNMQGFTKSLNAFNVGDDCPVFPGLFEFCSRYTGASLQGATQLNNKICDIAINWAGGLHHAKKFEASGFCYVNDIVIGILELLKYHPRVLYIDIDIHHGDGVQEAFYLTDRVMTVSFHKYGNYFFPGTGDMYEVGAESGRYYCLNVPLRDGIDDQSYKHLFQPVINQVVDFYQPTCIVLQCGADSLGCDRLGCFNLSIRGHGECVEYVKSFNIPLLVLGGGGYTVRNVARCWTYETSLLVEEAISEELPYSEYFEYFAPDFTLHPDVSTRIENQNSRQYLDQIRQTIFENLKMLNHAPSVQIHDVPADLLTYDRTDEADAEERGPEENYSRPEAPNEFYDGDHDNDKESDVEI
Sequence (Q9Y618 395-489 partner limits assumed): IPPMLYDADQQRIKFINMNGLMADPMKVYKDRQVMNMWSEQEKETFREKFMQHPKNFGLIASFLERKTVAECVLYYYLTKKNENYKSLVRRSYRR
Assay: HDAC3 inhibition, full IC50 measurement (Reaction Biology; fluorogenic p53 peptide RHKK(Ac)AMC)
Format: biochemical
Settings: Conc. 1.37E-08 M, t2
Peptide text beside a SMILES is read from it.
reported.endpoint: HDAC3 activity raw data (signal)

molecule="NCCCC[C@@H]1NC(=O)[C@@H]2CCCN2C(=O)[C@H](CC(N)=O)NC(=O)[C@H](CCCCCS)NC(=O)CNC(=O)[C@H](Cc2c[nH]c3ccccc23)NC(=O)[C@@H](CCCCN)NC(=O)[C@H](CCC(N)=O)NC1=O [des1.1.0, SHA-Asn-Pro-Lys-Gln-dLys-Trp-Gly] (HELM PEPTIDE1{G.[O=C([C@H](CCCCCS)N[*:1])[*:2]].N.P.K.Q.[dK].W}$PEPTIDE1,PEPTIDE1,1:R1-8:R2$$$V2.0)" reported_endpoint="HDAC3 activity raw data (signal)" reported=1197870
molecule="NCCCC[C@H]1NC(=O)[C@H](CCC(N)=O)NC(=O)[C@H](CCC(=O)O)NC(=O)[C@@H]2CCCN2C(=O)[C@H](CC(N)=O)NC(=O)[C@H](CCCCCS)NC(=O)CNC(=O)[C@H](Cc2c[nH]c3ccccc23)NC1=O [des1.1.1, SHA-Asn-Pro-Glu-Gln-dLys-Trp-Gly] (HELM PEPTIDE1{E.Q.[dK].W.G.[O=C([C@H](CCCCCS)N[*:1])[*:2]].N.P}$PEPTIDE1,PEPTIDE1,1:R1-8:R2$$$V2.0)" reported_endpoint="HDAC3 activity raw data (signal)" reported=1063632
molecule="N=C(N)NCCC[C@H]1NC(=O)[C@@H]2CCCN2C(=O)[C@H](CO)NC(=O)[C@@H](Cc2c[nH]cn2)NC(=O)[C@H](CCCCCS)NC(=O)[C@H](CCCCN)NC(=O)[C@H](Cc2ccc(O)cc2)NC(=O)[C@H]2CCCN2C(=O)[C@@H](CCC(N)=O)NC1=O [des3.1.0, SHA-dHis-Ser-Pro-dArg-dGln-dPro-Tyr-Lys] (HELM PEPTIDE1{K.[O=C([C@H](CCCCCS)N[*:1])[*:2]].[dH].S.P.[dR].[dQ].[dP].Y}$PEPTIDE1,PEPTIDE1,1:R1-9:R2$$$V2.0)" reported_endpoint="HDAC3 activity raw data (signal)" reported=998355
